test: Viable cell number, trypan blue exclusion assay; type: cell-based; details: human, NCI-H460 cells, 7.8 μM (1.5× GI50), read-out: Number of viable cells (in relation to Blank cells)
Measured attribute: viability at 48 h, 7.8 µM (%)

Smiles string: O=c1c2ccccc2oc2c[n+](Cc3ccccc3)ccc12.[Br-]
Endpoint value: 49

Reference source: paper PMC6017909
